# Test system: 2.2.15 cells
# test.protocol: Toxicity analysis by neutral red dye uptake in 2.2.15 cells
# Type: cell-based
# measurement.conditions: 100 μM
Would you kindly list Neutral Red Dye Uptake at Indicated Drug Concentration for each of these molecules?

Here are 3 molecules together with their reported answers.
Nc1ncnc2c1ncn2[C@H]1C[C@H](O)[C@@H](COP(=O)(S)OCc2ccc3ccccc3c2)O1 (stereo partly shown) [Nucleoside W198-22]
102 ± 2 % of control
C/C=C(/COP(=O)(S)OC[C@H]1O[C@@H](n2cnc3c(N)ncnc32)C[C@@H]1O)c1ccccc1 (stereo partly shown) [Nucleoside W198-21]
100 ± 1 % of control
C=C(C)[C@@H]1CC=C(COP(=O)(S)OC[C@H]2O[C@@H](n3cnc4c(N)ncnc43)C[C@@H]2O)CC1 (stereo partly shown) [Nucleoside W198-24]
103 ± 1 % of control

Query: Quick check: Neutral Red Dye Uptake at Indicated Drug Concentration of C=C(C)CC/C=C/COP(=O)(S)OC[C@H]1O[C@@H](n2cnc3c(N)ncnc32)C[C@@H]1O (stereo partly shown) [Nucleoside W198-10] ?
Reply: 99 ± 1 % of control

###

# System: 2.2.15 cells
# test.protocol: Toxicity analysis by neutral red dye uptake in 2.2.15 cells
# Format: cell-based
# measurement.conditions: 300 μM
Would you kindly list Neutral Red Dye Uptake at Indicated Drug Concentration for each of these compounds?

Here are 3 compounds together with their reported answers.
Nc1ncnc2c1ncn2[C@H]1C[C@H](O)[C@@H](COP(=O)(S)OCc2ccc3ccccc3c2)O1 (stereo partly shown) [Nucleoside W198-22]
103 ± 2 % of control
C=C(C)CC/C=C/COP(=O)(S)OC[C@H]1O[C@@H](n2cnc3c(N)ncnc32)C[C@@H]1O (stereo partly shown) [Nucleoside W198-10]
98 ± 1 % of control
C=C(C)[C@@H]1CC=C(COP(=O)(S)OC[C@H]2O[C@@H](n3cnc4c(N)ncnc43)C[C@@H]2O)CC1 (stereo partly shown) [Nucleoside W198-24]
102 ± 1 % of control

Proceeding to the next compound to report its Neutral Red Dye Uptake at Indicated Drug Concentration.
Query: Quick check: Neutral Red Dye Uptake at Indicated Drug Concentration of C/C=C(/COP(=O)(S)OC[C@H]1O[C@@H](n2cnc3c(N)ncnc32)C[C@@H]1O)c1ccccc1 (stereo partly shown) [Nucleoside W198-21] ?
Reply: 100 ± 2 % of control

###

# Tested on: hepatits B virus (HBV)
# test.protocol: Inhibition of HBV: extracellular virion HBV DNA in 2.2.15 cell cultures
# Type: cell-based
# measurement.conditions: 10 μM, 2.2.15 cells; untreated control 114±16 pg/ml
Would you kindly list HBV Virion DNA Levels at indicated Drug Concentration for each of these molecules?
Give bare numbers, in pg/ml culture.

Here are 3 molecules together with their reported answers.
Nc1ncnc2c1ncn2[C@H]1C[C@H](O)[C@@H](COP(=O)(S)OCc2ccc3ccccc3c2)O1 (stereo partly shown) [Nucleoside W198-22]
59
C=C(C)[C@@H]1CC=C(COP(=O)(S)OC[C@H]2O[C@@H](n3cnc4c(N)ncnc43)C[C@@H]2O)CC1 (stereo partly shown) [Nucleoside W198-24]
62
C=C(C)CC/C=C/COP(=O)(S)OC[C@H]1O[C@@H](n2cnc3c(N)ncnc32)C[C@@H]1O (stereo partly shown) [Nucleoside W198-10]
46

Proceeding to the next molecule to report its HBV Virion DNA Levels at indicated Drug Concentration.
Query: Quick check: HBV Virion DNA Levels at indicated Drug Concentration of C/C=C(/COP(=O)(S)OC[C@H]1O[C@@H](n2cnc3c(N)ncnc32)C[C@@H]1O)c1ccccc1 (stereo partly shown) [Nucleoside W198-21] ?
Reply: 35
